Could you please report measured viability, T/C for the items listed next?
# Test system: 945468-187-T-J3-PDC spheroids with HUVEC/MSC, viability;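 further: spheroids exposed to agents for 7 days before viability read; 100% = DMSO vehicle control viability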
# experiment description: Anticancer human tumor 945468-187-T-J3-PDC patient-derived rectal carcinoma cell line growth inhibition [PI3K]
# settings: second compound 0.316 µM; first compound 0.1 µM; active compounds read low
Kindly provide the numeric value in % only, without the unit symbol.

Test item CC(Cn1ccc(-c2ccc(C#N)c(Cl)c2)n1)NC(=O)c1cc(C(C)O)[nH]n1 (stereo unspecified) + Cc1nc(NC(=O)N2CCCC2C(N)=O)sc1-c1ccnc(C(C)(C)C(F)(F)F)c1 ; 945468-187-T-J3-PDC spheroids with HUVEC/MSC, viability; reported viability, T/C was 102

Test item CCCS(=O)(=O)Nc1ccc(F)c(C(=O)c2c[nH]c3ncc(-c4ccc(Cl)cc4)cc23)c1F + CC(Nc1ccc2c(c1)OCCn1cc(N3C(=O)OCC3C(F)F)nc1-2)C(N)=O ; 945468-187-T-J3-PDC spheroids with HUVEC/MSC, viability; reported viability, T/C was 108

Test item CC(C)n1nc(-c2ccc3oc(N)nc3c2)c2c(N)ncnc21 + Cc1nc(NC(=O)N2CCCC2C(N)=O)sc1-c1ccnc(C(C)(C)C(F)(F)F)c1 ; 945468-187-T-J3-PDC spheroids with HUVEC/MSC, viability; reported viability, T/C was 53.3

Test item CCCS(=O)(=O)Nc1ccc(F)c(C(=O)c2c[nH]c3ncc(-c4ccc(Cl)cc4)cc23)c1F + Cc1nc(NC(=O)N2CCCC2C(N)=O)sc1-c1ccnc(C(C)(C)C(F)(F)F)c1 ; 945468-187-T-J3-PDC spheroids with HUVEC/MSC, viability; reported viability, T/C was 101

Test item CNC(=O)c1ccc(N2C(=S)N(c3ccc(C#N)c(C(F)(F)F)c3)C(=O)C2(C)C)cc1F + CC(Nc1ccc2c(c1)OCCn1cc(N3C(=O)OCC3C(F)F)nc1-2)C(N)=O ; 945468-187-T-J3-PDC spheroids with HUVEC/MSC, viability; reported viability, T/C was 104

Test item CC1(C)CCC(Nc2ncc(C(F)(F)F)c(-c3c[nH]c4c(P(C)(C)=O)c(C#N)ccc34)n2)CN1 (stereo unspecified) + COc1c(OCCCN2CCOCC2)ccc2c3n(c(=NC(=O)c4cnc(N)nc4)nc12)CCN3 ; 945468-187-T-J3-PDC spheroids with HUVEC/MSC, viability; reported viability, T/C was 26.6

Test item CNC(=O)c1ccc(N2C(=S)N(c3ccc(C#N)c(C(F)(F)F)c3)C(=O)C2(C)C)cc1F + CC(Nc1ncnc2nc[nH]c12)c1cc2cccc(Cl)c2c(=O)n1-c1ccccc1 ; 945468-187-T-J3-PDC spheroids with HUVEC/MSC, viability; reported viability, T/C was 93.8

Test item C#Cc1c(F)ccc2cc(O)cc(-c3ncc4c(N5CC6CCC(C5)N6)nc(OCC56CCCN5CC(F)C6)nc4c3F)c12 (stereo unspecified) + COc1c(OCCCN2CCOCC2)ccc2c3n(c(=NC(=O)c4cnc(N)nc4)nc12)CCN3 ; 945468-187-T-J3-PDC spheroids with HUVEC/MSC, viability; reported viability, T/C was 22.4

Test item CCN1CCN(Cc2ccc(Nc3ncc(F)c(-c4cc(F)c5nc(C)n(C(C)C)c5c4)n3)nc2)CC1 + CC(Nc1ncnc2nc[nH]c12)c1cc2cccc(Cl)c2c(=O)n1-c1ccccc1 ; 945468-187-T-J3-PDC spheroids with HUVEC/MSC, viability; reported viability, T/C was 113

Test item Cn1nccc1Nc1nccc(-c2ccn(C(CO)c3ccc(Cl)c(F)c3)c(=O)c2)n1 (stereo unspecified) + CC(Nc1ccc2c(c1)OCCn1cc(N3C(=O)OCC3C(F)F)nc1-2)C(N)=O ; 945468-187-T-J3-PDC spheroids with HUVEC/MSC, viability; reported viability, T/C was 91.7

Test item C=CC(=O)N1CCN(c2nc(=O)n(-c3c(C)ccnc3C(C)C)c3nc(-c4c(O)cccc4F)c(F)cc23)C(C)C1 (stereo unspecified) + COc1c(OCCCN2CCOCC2)ccc2c3n(c(=NC(=O)c4cnc(N)nc4)nc12)CCN3 ; 945468-187-T-J3-PDC spheroids with HUVEC/MSC, viability; reported viability, T/C was 20.9
